Target: Nuclear receptor subfamily 1 group I member 3 (Homo sapiens) (UniProt Q14994)
Sequence (Q14994 whole entry, looked up): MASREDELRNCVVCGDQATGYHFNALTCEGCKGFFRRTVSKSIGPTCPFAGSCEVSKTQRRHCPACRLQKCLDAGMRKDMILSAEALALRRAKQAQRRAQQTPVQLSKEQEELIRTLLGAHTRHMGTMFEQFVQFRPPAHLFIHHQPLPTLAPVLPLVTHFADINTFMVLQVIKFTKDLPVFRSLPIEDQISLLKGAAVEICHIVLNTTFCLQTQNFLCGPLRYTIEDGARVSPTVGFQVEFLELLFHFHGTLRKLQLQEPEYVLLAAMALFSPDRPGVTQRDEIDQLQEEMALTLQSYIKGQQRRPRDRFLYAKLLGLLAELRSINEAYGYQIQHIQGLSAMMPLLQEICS
Assay: qHTS assay to identify small molecule agonists of the constitutive androstane receptor (CAR) signaling pathway (AID 1224839); further: nearly all actives have a fitted effect of over 15% in size;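 on activation: HepG2 cells stably carrying human CAR and a CYP2B6 luciferase reporter; on the % scale 0 is the no-effect control and ±100 the full control effect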
Conditions: HepG2 hCAR CYP2B6-luciferase, agonist mode, 24 h; series mostly up to 92.4 µM
Records with an inconclusive call do not appear. Calls of active or inactive are those of the source. The call rests on the fitted dose curve; in most records, active means well fitted activation curve with a large enough effect in the repeat runs; inconclusive means weak or mixed curves; inactive means no such curve, though single readings can be large or run the other way.
Classes to choose from: t (active), f (inactive)

CCCCc1ccc2nc(NC(=O)OC)[nH]c2c1 t

Entry `O=C(O)c1cccc(Cl)c1Cl` : call = ?
f

Entry `CCCCCCCCOC(=O)CCCCCCCCC(=O)OCCCCCCCC` : call = ?
f

Entry `CC(C)OC(C)C` : call = ?
f

Entry `CCCCN1C[C@H](O)[C@@H](O)[C@H](O)[C@H]1CO` : call = ?
f

Entry `FC(F)(F)C(Cl)(Cl)Cl` : call = ?
f

Entry `O=c1[nH]cnc2c1ncn2[C@@H]1O[C@H](CO)[C@@H](O)[C@H]1O` : call = ?
f

Entry `CCOC(=O)c1cc(=O)c2c(OCC(COc3cccc4oc(C(=O)OCC)cc(=O)c34)OC(=O)[C@@H](N)CCCCN)cccc2o1` : call = ?
f

Entry `COc1nc(C)nc(NC(=O)NS(=O)(=O)c2ccccc2OCCCl)n1` : call = ?
f

Entry `FC(F)(F)C(F)(F)C(F)(F)C(F)(F)C(F)(F)C(F)(F)C(F)(F)C(F)(F)Br` : call = ?
f

* * *

Assay: qHTS assay for small molecule agonists of the antioxidant response element (ARE) signaling pathway (AID 743202); on activation: on the % scale 0 is the no-effect control and ±100 the full control effect
Details: HepG2 ARE-bla reporter, beta-lactamase FRET, 16 h; series mostly up to 73.3 µM
Results filed as inconclusive are left out. Calls of active or inactive are those of the source. Calls follow the shape of the dose curve; as a rule, active = well fitted activation curve with a large enough effect in the signal ratio in the repeat runs (not every such curve was filed as active); inconclusive = weak or mixed curves, or effect the other way; inactive = no such curve, though single readings can be large or run the other way; the % refers to the signal ratio.
Classes to choose from: active, inactive

COMPOUND	CLASS NAME
Cc1cc(NS(=O)(=O)c2ccc(N)cc2)nc(C)n1	inactive

Entry CCOC(=O)C1CC(=O)C(=C(O)C2CC2)C(=O)C1 (centres undefined) : call = ?
inactive

Entry `N#CSCC(=O)O` : call = ?
inactive

Entry `O=C(O)[C@@H](O)[C@H](O)[C@H](O)[C@@H](O)C(=O)O` : call = ?
inactive

Entry `C=CCCCCCCCCO` : call = ?
inactive

Entry `O=C(O)c1ccccc1Nc1cc(Cl)ccc1C(=O)O` : call = ?
inactive

Entry `O=Cc1ccc(F)c(Br)c1` : call = ?
inactive

Entry `NC/C=C/C(=O)O` : call = ?
inactive

Entry `CC(C)C[C@H](NC(=O)OCC1c2ccccc2-c2ccccc21)C(=O)O` : call = ?
inactive

Entry `N#Cc1ccc(C(c2ccc(C#N)cc2)n2cncn2)cc1` : call = ?
inactive

Entry `Nc1ccc2ccccc2c1S(=O)(=O)O` : call = ?
active

Entry `CC(=O)O[C@H]1CC[C@@]2(C)C(=CC[C@@H]3[C@@H]2CC[C@]2(C)C(C(C)=O)=CC[C@@H]32)C1` : call = ?
active

Entry `CCc1cc2cc(OC)c(OC)cc2c(Cc2ccccc2)n1` : call = ?
inactive

Entry `NCCCN1CCN(CCCN)CC1` : call = ?
inactive

Entry CCCCC1CCC(=O)O1 (centres undefined) : call = ?
inactive

Entry `CC(C)c1ccccc1` : call = ?
inactive

Entry `CO[C@@]1(NC(=O)CSCC#N)C(=O)N2C(C(=O)O)=C(CSc3nnnn3C)CS[C@@H]21` : call = ?
inactive

Entry `Cc1ccc([N+](=O)[O-])cc1Cl` : call = ?
inactive

* * *

Assay: qHTS assay to test for compound auto fluorescence at 535 nm (green) in HepG2 cell free culture (AID 720686); further: on the % scale 0 is the no-effect control and ±100 the full control effect
Conditions: Cell-free medium, green autofluorescence 485/535 nm; series mostly up to 91.3 µM
Active and inactive are the calls of the source. Calls follow the shape of the dose curve; as a rule, active = well fitted curve in the direction sought with a large enough effect in the repeat runs; inconclusive = weak or mixed curves; inactive = flat fitted curve, though single readings scatter.
PARAMETER: fluorescence, % of fluorescein control

// known answers, use as guide
COMPOUND	fluorescence, % of fluorescein control
CCCC1CCC(=O)O1 (stereo unspecified)	inactive
CN1CCN(C2=Nc3ccccc3Oc3ccc(Cl)cc32)CC1	0.0479% [at 18.6 µM] (inactive)
N#Cc1ccc(C(c2ccc(C#N)cc2)n2cncn2)cc1	inactive
CCC(=O)O[C@]1(C(=O)SCF)[C@H](C)C[C@H]2[C@@H]3C[C@H](F)C4=CC(=O)C=C[C@]4(C)[C@@]3(F)[C@@H](O)C[C@@]21C	0.0971% [at 18.6 µM] (inactive)
NNS(=O)(=O)c1ccc(Oc2ccc(S(=O)(=O)NN)cc2)cc1	inactive

Query (compound): `CC(C)(C)c1cccc(O)c1` ; field requested: fluorescence, % of fluorescein control
inactive

* * *

Target: Cytochrome P450 2D6 (Homo sapiens) (UniProt P10635)
Sequence (P10635 whole entry, looked up): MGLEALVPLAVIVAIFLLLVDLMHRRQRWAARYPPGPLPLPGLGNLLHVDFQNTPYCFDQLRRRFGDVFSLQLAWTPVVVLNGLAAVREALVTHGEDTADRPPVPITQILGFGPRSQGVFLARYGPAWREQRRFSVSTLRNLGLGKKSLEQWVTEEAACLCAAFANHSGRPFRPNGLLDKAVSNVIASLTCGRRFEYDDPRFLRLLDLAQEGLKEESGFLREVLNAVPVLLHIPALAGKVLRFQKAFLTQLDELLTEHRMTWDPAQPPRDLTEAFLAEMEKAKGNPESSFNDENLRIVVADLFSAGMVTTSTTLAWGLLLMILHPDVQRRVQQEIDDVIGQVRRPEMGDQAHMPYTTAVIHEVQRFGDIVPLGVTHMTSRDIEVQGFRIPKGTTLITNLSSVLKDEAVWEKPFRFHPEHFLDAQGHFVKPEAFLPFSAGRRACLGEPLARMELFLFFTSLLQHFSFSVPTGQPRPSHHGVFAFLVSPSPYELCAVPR
Assay: Cytochrome P450 Family 2 Subfamily D Member 6 (CYP2D6) small molecule antagonists: luciferase reporter qHTS assay (AID 1671196); further: on the % scale 0 is the no-effect control and ±100 the full control effect; nearly all actives have a fitted effect of over 50% in size
Details: P450-Glo CYP2D6 enzyme assay, luciferin luminescence, 1 h; series mostly up to 115 µM
Results filed as inconclusive are left out. Calls of active or inactive are those of the source. Calls follow the shape of the dose curve; as a rule, active = well fitted inhibition curve with a large enough effect in the repeat runs; inconclusive = weak or mixed curves; inactive = no such curve, though single readings can be large or run the other way.
Each entry below carries its recorded activity change, negative = inhibition.

// known answers, use as guide
O=c1oc2c(O)c(O)cc3c(=O)oc4c(O)c(O)cc1c4c23 -16.4% [at 23.6 µM] (inactive)
C[C@@H]1CN(c2c(F)c(N)c3c(=O)c(C(=O)O)cn(C4CC4)c3c2F)C[C@H](C)N1 -4.41% [at 23.6 µM] (inactive)
C[C@@H]1CN(c2c(F)c(F)c3c(=O)c(C(=O)O)cn(C4CC4)c3c2F)C[C@H](C)N1 -28.8% [at 23.6 µM] (inactive)

Now for the compound whose activity change, negative = inhibition we want.
Query (compound): `O=C(O)CN(CCN(CC(=O)O)CC(=O)O)CCN(CC(=O)O)CC(=O)O` ; field requested: activity change, negative = inhibition
-5.69% [at 23.6 µM] (inactive)

* * *

Assay: qHTS assay for identifying genotoxic compounds that show differential cytotoxicity against isogenic chicken DT40 cell lines with known DNA damage response pathways - wild type cell line (AID 743012); further: nearly all actives have a fitted effect of over 60% in size
Conditions: DT40 wild type chicken cells viability, CellTiter-Glo, 40 h; series mostly up to 68.4 µM
Inconclusive results are not listed. Calls of active or inactive are those of the source. Calls come from the whole dose curve; as a rule, active = well fitted cell-killing curve with a large enough effect in the repeat runs; inconclusive = weak or mixed curves, or effect the other way; inactive = no such curve, though single readings can be large or run the other way.
Classes to choose from: true (1) for active, false (0) for inactive

COMPOUND	CLASS NAME
CC1=C2[C@H](/C=C(\C)C(=O)O)CC[C@@H](C)[C@H]2CC1	false (0)
O=S(=O)(O)C(F)(F)F	false (0)
Cc1ccc(C(C)C)cc1O	false (0)

Entry `Cc1ccc(C=O)s1` : call = ?
false (0)

Entry CCN1CC(CCN2CCOCC2)C(c2ccccc2)(c2ccccc2)C1=O (configuration not stated) : call = ?
false (0)

Entry `CC(C)(CO)[C@@H](O)C(=O)NCCC(=O)O` : call = ?
false (0)

Entry CC(C)NCC(O)COc1ccc(CCOCC2CC2)cc1 (configuration not stated) : call = ?
true (1)

* * *

Test: qHTS assay to test for compound auto fluorescence at 590 nm (red) in HEK293 cells (AID 720679); further: on the % scale 0 is the no-effect control and ±100 the full control effect
Details: red autofluorescence 540/590 nm; series mostly up to 91.3 µM
Active and inactive are the calls of the source. The call rests on the fitted dose curve; in most records, active means well fitted curve in the direction sought with a large enough effect in the repeat runs; inconclusive means weak or mixed curves; inactive means flat fitted curve, though single readings scatter.
PARAMETER: fluorescence, % of fluorescent control

// known answers, use as guide
COMPOUND	RECORDED MEASUREMENT
COc1cc2c(cc1N)oc1ccccc12	inactive
CCN(O)CC	inactive
C=CCc1cc(OC)c(O)c(C(=O)NCCO)c1	inactive
CCOC(=O)C(Br)c1ccccc1 (centres undefined)	inactive
CC(C)NC[C@@H](O)COc1cccc2ccccc12	inactive

Query (compound): `CCCCCCCOC(=O)CCC` ; field requested: fluorescence, % of fluorescent control
inactive

Query (compound): `O=C1C=CC(=O)O1` ; field requested: fluorescence, % of fluorescent control
inactive

Query (compound): `CCN(CCCc1ccccc1)CCCc1ccccc1` ; field requested: fluorescence, % of fluorescent control
-0.195% [at 18.6 µM] (inactive)

Query (compound): `C=CCCCCCCCCO` ; field requested: fluorescence, % of fluorescent control
inactive

Query (compound): `NCCCN1CCN(CCCN)CC1` ; field requested: fluorescence, % of fluorescent control
inactive

Query (compound): `CN(C)C(=O)NC1(c2ccccc2)CCN(CCC[C@]2(c3ccc(Cl)c(Cl)c3)CCCN(C(=O)c3ccccc3)C2)CC1` ; field requested: fluorescence, % of fluorescent control
-0.621% [at 18.6 µM] (inactive)

Query (compound): CC(C)NCC(O)COc1ccc(CCOCC2CC2)cc1 (centres undefined) ; field requested: fluorescence, % of fluorescent control
inactive

Query (compound): `Cc1c(N)cccc1N` ; field requested: fluorescence, % of fluorescent control
inactive

Query (compound): CCCNC(C)C(=O)Nc1c(C)csc1C(=O)OC (centres undefined) ; field requested: fluorescence, % of fluorescent control
-0.0511% [at 18.6 µM] (inactive)

The measurements presented in this section are drawn from PubChem BioAssay (Tox21).
